Assay: AUC (0 to 24 hrs) in Sprague-Dawley rat at 1 mg/kg, po by LC/MS/MS analysis
Format: ADME, organism-based
Parameters: time < 24 hr, dose 1 mg/kg, route oral
Conditions: plasma
Quantity: AUC(0-t) at 24 h

compound_structure=N[C@@]1(C(=O)O)C[C@@H](F)[C@H]2[C@H](C(=O)O)[C@H]21 result="2.79 µM·h"

----------
Assay: AUC (0 to 24 hrs) in Sprague-Dawley rat at 3 mg/kg, iv by LC/MS/MS analysis
Assay type: ADME, organism-based
Parameters: time < 24 hr, dose 3 mg/kg, route intravenous
Conditions: plasma
Quantity: AUC(0-t) at 24 h

compound_structure=N[C@@]1(C(=O)O)C[C@@H](F)[C@H]2[C@H](C(=O)O)[C@H]21 quantity="AUC(0-t) at 24 h" result="16.7 µM·h"

----------
Assay: Cmax in Sprague-Dawley rat at 10 mg/kg, po up to 24 hrs by LC/MS/MS analysis
Assay type: ADME, organism-based
Set-up: dose 10 mg/kg, route oral
Conditions: in vivo
Quantity: Cmax

compound_structure=N[C@@]1(C(=O)O)C[C@@H](F)[C@H]2[C@H](C(=O)O)[C@H]21 result="7.94 µM"

----------
Assay: Volume of distribution at steady state in Sprague-Dawley rat at 3 mg/kg, iv up to 24 hrs by LC/MS/MS analysis
Assay type: ADME, organism-based
Set-up: dose 3 mg/kg, route intravenous
Settings: in vivo, read-out: Vdss
Quantity: Vd (L/kg)

compound_structure=N[C@@]1(C(=O)O)C[C@@H](F)[C@H]2[C@H](C(=O)O)[C@H]21 quantity=Vd numeric_readout=1.25

----------
Assay: Half life in Sprague-Dawley rat at 3 mg/kg, po by LC/MS/MS analysis
Type: ADME, organism-based
Set-up: dose 3 mg/kg, route oral
Conditions: in vivo
Quantity: half-life (h)

compound_structure=N[C@@]1(C(=O)O)C[C@@H](F)[C@H]2[C@H](C(=O)O)[C@H]21 quantity=half-life numeric_readout=3.5

----------
Catalogue of EC50 readings, one per entry.
Target: Metabotropic glutamate receptor 3 (Homo sapiens, UniProt Q14832)
Sequence (Q14832 whole entry): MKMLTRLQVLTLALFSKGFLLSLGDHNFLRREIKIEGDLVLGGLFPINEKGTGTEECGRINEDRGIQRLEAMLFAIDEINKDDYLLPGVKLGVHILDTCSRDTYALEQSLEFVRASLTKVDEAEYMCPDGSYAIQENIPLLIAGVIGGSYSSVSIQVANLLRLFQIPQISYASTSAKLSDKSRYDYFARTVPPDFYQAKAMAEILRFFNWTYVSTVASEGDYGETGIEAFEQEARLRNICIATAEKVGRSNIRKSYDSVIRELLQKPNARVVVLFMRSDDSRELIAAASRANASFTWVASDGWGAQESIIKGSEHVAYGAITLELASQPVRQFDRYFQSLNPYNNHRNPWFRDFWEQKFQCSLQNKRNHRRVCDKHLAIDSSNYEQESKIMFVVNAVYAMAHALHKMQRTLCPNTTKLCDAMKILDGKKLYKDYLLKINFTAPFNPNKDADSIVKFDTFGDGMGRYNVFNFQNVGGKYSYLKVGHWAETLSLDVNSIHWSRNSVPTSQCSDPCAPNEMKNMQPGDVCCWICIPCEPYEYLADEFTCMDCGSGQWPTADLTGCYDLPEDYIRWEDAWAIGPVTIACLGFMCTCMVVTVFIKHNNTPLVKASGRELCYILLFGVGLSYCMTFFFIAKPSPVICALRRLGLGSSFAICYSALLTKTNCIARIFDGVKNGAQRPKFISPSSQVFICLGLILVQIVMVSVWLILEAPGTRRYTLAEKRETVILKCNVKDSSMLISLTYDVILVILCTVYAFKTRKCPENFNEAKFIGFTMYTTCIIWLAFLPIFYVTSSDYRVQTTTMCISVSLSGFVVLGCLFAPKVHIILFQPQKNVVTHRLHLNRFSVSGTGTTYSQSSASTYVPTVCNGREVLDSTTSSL
Experiment: Agonist activity at human mGlu3 receptor expressed in golden Syrian hamster AV12 cells coexpressing EAAT1 after 20 mins by HTRF assay
Quantity: EC50 (nM)

compound_structure=C=C1C[C@@](N)(C(=O)O)[C@H]2[C@@H]1[C@@H]2C(=O)O output_unit=nM numeric_readout=15.5
compound_structure=N[C@@H]1C[C@@](N)(C(=O)O)[C@@H]2[C@@H](C(=O)O)[C@@H]21 output_unit=nM numeric_readout=57.1
compound_structure=[N-]=[N+]=N[C@H]1C[C@@](N)(C(=O)O)[C@@H]2[C@@H](C(=O)O)[C@@H]21 output_unit=nM numeric_readout=23.5
compound_structure=N[C@@]1(C(=O)O)CC(=O)[C@H]2[C@H](C(=O)O)[C@H]21 output_unit=nM numeric_readout=0.11
compound_structure=C[C@H]1C[C@@](N)(C(=O)O)[C@@H]2[C@@H](C(=O)O)[C@@H]21 output_unit=nM numeric_readout=166
compound_structure=N[C@@]1(C(=O)O)CC[C@H]2[C@H](C(=O)O)[C@H]21 output_unit=nM numeric_readout=27.1
compound_structure=N[C@@]1(C(=O)O)C[C@@H](F)[C@H]2[C@H](C(=O)O)[C@H]21 output_unit=nM numeric_readout=0.24
compound_structure=CC(=O)N[C@H]1C[C@@](N)(C(=O)O)[C@@H]2[C@@H](C(=O)O)[C@@H]21 output_unit=nM numeric_readout=193
compound_structure=N[C@H]1C[C@@](N)(C(=O)O)[C@@H]2[C@@H](C(=O)O)[C@@H]21 output_unit=nM numeric_readout=24.9
compound_structure=[N-]=[N+]=N[C@@H]1C[C@@](N)(C(=O)O)[C@@H]2[C@@H](C(=O)O)[C@@H]21 output_unit=nM numeric_readout=12.3

----------
Assay: Tmax in Sprague-Dawley rat at 1 mg/kg, po by LC/MS/MS analysis
Type: ADME, organism-based
Set-up: dose 1 mg/kg, route oral
Conditions: in vivo
Quantity: Tmax (h)

compound_structure=N[C@@]1(C(=O)O)C[C@@H](F)[C@H]2[C@H](C(=O)O)[C@H]21 quantity=Tmax output_unit=h numeric_readout=2.5

----------
Experiment: Oral bioavailability in Sprague-Dawley rat at 3 mg/kg up to 24 hrs by LC/MS/MS analysis
Format: ADME, organism-based
Conditions: in vivo
Quantity: bioavailability (%)

compound_structure=N[C@@]1(C(=O)O)C[C@@H](F)[C@H]2[C@H](C(=O)O)[C@H]21 quantity=bioavailability numeric_readout=64.4

----------
Molecular target: Metabotropic glutamate receptor 6 (Homo sapiens, UniProt O15303)
Sequence (O15303 whole entry): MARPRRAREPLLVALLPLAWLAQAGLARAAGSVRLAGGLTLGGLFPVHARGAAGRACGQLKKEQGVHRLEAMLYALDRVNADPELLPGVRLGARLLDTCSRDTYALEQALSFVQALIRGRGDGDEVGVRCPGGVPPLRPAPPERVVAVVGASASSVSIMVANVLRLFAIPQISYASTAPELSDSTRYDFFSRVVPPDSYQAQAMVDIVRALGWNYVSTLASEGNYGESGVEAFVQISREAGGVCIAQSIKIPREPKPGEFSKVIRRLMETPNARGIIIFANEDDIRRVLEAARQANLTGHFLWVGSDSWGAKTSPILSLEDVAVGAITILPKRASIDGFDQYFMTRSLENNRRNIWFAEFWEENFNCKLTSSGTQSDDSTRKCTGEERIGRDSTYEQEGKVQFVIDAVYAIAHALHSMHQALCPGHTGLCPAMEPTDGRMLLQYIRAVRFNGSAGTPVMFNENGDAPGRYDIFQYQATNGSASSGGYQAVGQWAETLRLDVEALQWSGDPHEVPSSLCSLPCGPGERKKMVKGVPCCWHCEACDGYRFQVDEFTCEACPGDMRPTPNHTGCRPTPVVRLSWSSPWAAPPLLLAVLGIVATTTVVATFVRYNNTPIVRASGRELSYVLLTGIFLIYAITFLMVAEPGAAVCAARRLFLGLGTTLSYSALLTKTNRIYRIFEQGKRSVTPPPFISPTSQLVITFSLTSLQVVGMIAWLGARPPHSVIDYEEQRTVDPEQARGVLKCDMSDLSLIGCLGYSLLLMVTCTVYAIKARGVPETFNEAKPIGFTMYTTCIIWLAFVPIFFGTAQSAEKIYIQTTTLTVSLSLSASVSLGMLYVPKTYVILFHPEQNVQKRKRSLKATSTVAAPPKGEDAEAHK
Assay: Agonist activity at human mGlu6 receptor expressed in golden Syrian hamster AV12 cells coexpressing EAAT1 after 20 mins by FLIPR assay
Type: cell-based
Quantity: EC50

compound_structure=N[C@@]1(C(=O)O)C[C@@H](Sc2ccccc2)[C@H]2[C@H](C(=O)O)[C@H]21 measurement_target="Metabotropic glutamate receptor 6 (Homo sapiens, UniProt O15303)" result="1270 nM"
compound_structure=N[C@@]1(C(=O)O)C[C@@H](F)[C@H]2[C@H](C(=O)O)[C@H]21 measurement_target="Metabotropic glutamate receptor 6 (Homo sapiens, UniProt O15303)" result="1410 nM"
compound_structure=CC(=O)N[C@@H]1C[C@@](N)(C(=O)O)[C@@H]2[C@@H](C(=O)O)[C@@H]21 measurement_target="Metabotropic glutamate receptor 6 (Homo sapiens, UniProt O15303)" result="6690 nM"

----------
Molecular target: UniProt:O00222
Sequence (O00222 whole entry): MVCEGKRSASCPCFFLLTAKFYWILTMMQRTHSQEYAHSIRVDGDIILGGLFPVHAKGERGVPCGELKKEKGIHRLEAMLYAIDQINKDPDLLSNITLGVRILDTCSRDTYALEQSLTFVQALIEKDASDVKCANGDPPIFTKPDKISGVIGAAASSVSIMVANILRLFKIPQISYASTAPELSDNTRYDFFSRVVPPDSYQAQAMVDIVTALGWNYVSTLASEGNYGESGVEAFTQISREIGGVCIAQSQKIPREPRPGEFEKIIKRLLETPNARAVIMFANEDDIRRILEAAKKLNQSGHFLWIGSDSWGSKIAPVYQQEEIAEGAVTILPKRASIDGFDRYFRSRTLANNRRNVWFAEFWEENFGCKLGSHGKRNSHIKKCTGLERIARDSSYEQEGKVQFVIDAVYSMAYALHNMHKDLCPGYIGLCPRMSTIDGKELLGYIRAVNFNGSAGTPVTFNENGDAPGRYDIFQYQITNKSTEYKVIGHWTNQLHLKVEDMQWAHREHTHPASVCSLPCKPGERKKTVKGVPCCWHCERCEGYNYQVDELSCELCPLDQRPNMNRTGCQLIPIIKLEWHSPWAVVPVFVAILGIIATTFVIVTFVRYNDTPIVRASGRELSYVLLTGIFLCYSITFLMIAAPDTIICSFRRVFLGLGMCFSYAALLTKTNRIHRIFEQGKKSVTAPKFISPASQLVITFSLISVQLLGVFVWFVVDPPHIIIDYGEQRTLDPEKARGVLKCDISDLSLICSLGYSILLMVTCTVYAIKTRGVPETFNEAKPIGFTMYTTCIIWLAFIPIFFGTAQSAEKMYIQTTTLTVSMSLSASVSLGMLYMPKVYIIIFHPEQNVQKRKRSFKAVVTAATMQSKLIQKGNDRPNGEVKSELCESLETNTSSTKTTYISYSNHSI
Test: Agonist activity at human mGlu8 receptor expressed in golden Syrian hamster AV12 cells coexpressing EAAT1 after 20 mins by FLIPR assay
Quantity: EC50 (µM)

compound_structure=N[C@@]1(C(=O)O)CC(=O)[C@H]2[C@H](C(=O)O)[C@H]21 quantity=EC50 qualifying_sign== numeric_readout=6.53
compound_structure=N[C@@]1(C(=O)O)C[C@@H](O)[C@H]2[C@H](C(=O)O)[C@H]21 quantity=EC50 qualifying_sign=> numeric_readout=25
compound_structure=C=C1C[C@@](N)(C(=O)O)[C@H]2[C@@H]1[C@@H]2C(=O)O quantity=EC50 qualifying_sign== numeric_readout=1.59
compound_structure=CC(=O)N[C@H]1C[C@@](N)(C(=O)O)[C@@H]2[C@@H](C(=O)O)[C@@H]21 quantity=EC50 qualifying_sign== numeric_readout=4.3
compound_structure=N[C@@]1(C(=O)O)C[C@H](O)[C@H]2[C@H](C(=O)O)[C@H]21 quantity=EC50 qualifying_sign=> numeric_readout=25
compound_structure=N[C@@]1(C(=O)O)C[C@@H](Sc2ccccc2)[C@H]2[C@H](C(=O)O)[C@H]21 quantity=EC50 qualifying_sign=> numeric_readout=25
compound_structure=N[C@@]1(C(=O)O)C[C@@H](F)[C@H]2[C@H](C(=O)O)[C@H]21 quantity=EC50 qualifying_sign== numeric_readout=11.5
compound_structure=N[C@@H]1C[C@@](N)(C(=O)O)[C@@H]2[C@@H](C(=O)O)[C@@H]21 quantity=EC50 qualifying_sign=> numeric_readout=25
compound_structure=N[C@@]1(C(=O)O)CC[C@H]2[C@H](C(=O)O)[C@H]21 quantity=EC50 qualifying_sign=> numeric_readout=25

----------
Assay: Half life in Sprague-Dawley rat at 3 mg/kg, iv by LC/MS/MS analysis
Type: ADME, organism-based
Design: dose 3 mg/kg, route intravenous
Conditions: in vivo
Quantity: half-life (h)

compound_structure=N[C@@]1(C(=O)O)C[C@@H](F)[C@H]2[C@H](C(=O)O)[C@H]21 quantity=half-life output_unit=h numeric_readout=7.3

----------
Molecular target: Metabotropic glutamate receptor 6 (Homo sapiens)
Assay: Agonist activity at human mGlu6 receptor expressed in golden Syrian hamster AV12 cells coexpressing EAAT1 after 20 mins by FLIPR assay
Assay type: cell-based
pEC50: −log10 of the molar value.
Quantity: pEC50

compound_structure=[N-]=[N+]=N[C@@H]1C[C@@](N)(C(=O)O)[C@@H]2[C@@H](C(=O)O)[C@@H]21 quantity=pEC50 numeric_readout=6.11
compound_structure=N[C@@]1(C(=O)O)C[C@@H](O)[C@H]2[C@H](C(=O)O)[C@H]21 quantity=pEC50 numeric_readout=5.36
compound_structure=C[C@H]1C[C@@](N)(C(=O)O)[C@@H]2[C@@H](C(=O)O)[C@@H]21 quantity=pEC50 numeric_readout=5.03
compound_structure=N[C@@]1(C(=O)O)C[C@H](Sc2ccccc2)[C@H]2[C@H](C(=O)O)[C@H]21 quantity=pEC50 numeric_readout=5.49
compound_structure=C[C@@H]1C[C@@](N)(C(=O)O)[C@@H]2[C@@H](C(=O)O)[C@@H]21 quantity=pEC50 numeric_readout=5.12
compound_structure=CC(=O)N[C@H]1C[C@@](N)(C(=O)O)[C@@H]2[C@@H](C(=O)O)[C@@H]21 quantity=pEC50 numeric_readout=6.15
compound_structure=N[C@H]1C[C@@](N)(C(=O)O)[C@@H]2[C@@H](C(=O)O)[C@@H]21 quantity=pEC50 numeric_readout=5.03
compound_structure=N[C@@]1(C(=O)O)CC[C@H]2[C@H](C(=O)O)[C@H]21 quantity=pEC50 numeric_readout=5.47
compound_structure=N[C@@H]1C[C@@](N)(C(=O)O)[C@@H]2[C@@H](C(=O)O)[C@@H]21 quantity=pEC50 numeric_readout=4.93
